Molecular target: Integrin beta-1 (Homo sapiens) + Integrin alpha-4 (Homo sapiens) (UniProt P13612+P05556)
Sequence (P05556 whole entry, looked up): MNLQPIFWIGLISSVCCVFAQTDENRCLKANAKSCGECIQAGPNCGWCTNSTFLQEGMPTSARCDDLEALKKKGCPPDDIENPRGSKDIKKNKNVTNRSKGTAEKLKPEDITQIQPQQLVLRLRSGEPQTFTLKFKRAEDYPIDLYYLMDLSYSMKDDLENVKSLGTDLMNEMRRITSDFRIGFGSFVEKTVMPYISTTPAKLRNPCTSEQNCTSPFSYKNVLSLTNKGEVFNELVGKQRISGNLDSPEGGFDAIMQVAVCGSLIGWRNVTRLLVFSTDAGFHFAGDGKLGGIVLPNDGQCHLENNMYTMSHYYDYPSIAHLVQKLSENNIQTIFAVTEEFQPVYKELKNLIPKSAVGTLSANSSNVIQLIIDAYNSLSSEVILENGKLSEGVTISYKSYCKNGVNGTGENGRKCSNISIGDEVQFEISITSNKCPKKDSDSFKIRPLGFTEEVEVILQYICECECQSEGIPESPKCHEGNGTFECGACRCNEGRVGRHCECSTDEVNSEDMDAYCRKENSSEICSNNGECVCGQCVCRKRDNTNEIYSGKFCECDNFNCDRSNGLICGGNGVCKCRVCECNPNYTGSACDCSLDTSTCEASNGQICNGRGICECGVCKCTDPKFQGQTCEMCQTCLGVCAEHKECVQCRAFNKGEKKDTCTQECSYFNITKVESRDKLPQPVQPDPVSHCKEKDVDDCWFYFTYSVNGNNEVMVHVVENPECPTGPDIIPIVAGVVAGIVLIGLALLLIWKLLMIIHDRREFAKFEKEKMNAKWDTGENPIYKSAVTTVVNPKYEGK
Sequence (P13612 whole entry, looked up): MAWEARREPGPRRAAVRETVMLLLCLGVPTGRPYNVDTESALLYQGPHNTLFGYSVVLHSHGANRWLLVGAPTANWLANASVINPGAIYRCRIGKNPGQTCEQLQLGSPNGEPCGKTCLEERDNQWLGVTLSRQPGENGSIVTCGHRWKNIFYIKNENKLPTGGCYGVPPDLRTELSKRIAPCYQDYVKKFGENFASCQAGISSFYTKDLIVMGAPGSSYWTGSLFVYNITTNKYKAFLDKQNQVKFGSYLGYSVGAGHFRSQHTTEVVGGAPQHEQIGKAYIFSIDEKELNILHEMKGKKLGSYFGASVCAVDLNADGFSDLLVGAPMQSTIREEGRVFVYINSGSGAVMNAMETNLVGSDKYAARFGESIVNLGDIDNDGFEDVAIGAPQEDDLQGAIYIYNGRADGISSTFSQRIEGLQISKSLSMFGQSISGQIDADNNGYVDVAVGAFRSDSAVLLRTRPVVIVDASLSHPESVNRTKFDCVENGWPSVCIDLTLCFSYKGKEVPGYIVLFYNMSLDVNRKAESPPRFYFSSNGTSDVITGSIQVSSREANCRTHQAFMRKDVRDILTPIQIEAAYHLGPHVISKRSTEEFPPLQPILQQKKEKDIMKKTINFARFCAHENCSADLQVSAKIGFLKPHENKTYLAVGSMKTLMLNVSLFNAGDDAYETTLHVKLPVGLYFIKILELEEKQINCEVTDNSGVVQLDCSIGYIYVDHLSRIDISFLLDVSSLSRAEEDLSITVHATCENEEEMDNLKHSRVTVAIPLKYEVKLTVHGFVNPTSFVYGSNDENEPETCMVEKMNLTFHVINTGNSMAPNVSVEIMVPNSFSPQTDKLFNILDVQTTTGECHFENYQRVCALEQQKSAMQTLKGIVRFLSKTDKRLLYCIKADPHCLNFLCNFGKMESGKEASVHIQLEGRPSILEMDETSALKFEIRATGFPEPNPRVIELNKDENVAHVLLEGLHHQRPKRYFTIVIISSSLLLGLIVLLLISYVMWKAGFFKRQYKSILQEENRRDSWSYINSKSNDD
Experiment: alpha4beta1 integrin LIBS antibody binding reduction – U937 cells, HUTS-21 mAb, flow cytometry, validation set, VLA-4 allosteric modulator project, pilot screen (AID 2674);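 further: antibody binding induced by the VLA-4 ligand LDV present at three times its Kd; 0% = LDV ligand with antibody and no compound and 100% = antibody without LDV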
Conditions: HUTS-21 LIBS mAb binding, at 6.7 µM, hits give high values, binding induced by LDV ligand
measured.endpoint: inhibition (%)

compound=Cc1ccccc1C(=O)Nc1ccccc1C(=O)NCC(C)C measured_endpoint=inhibition unit_abbrev=% value_reported=7.4
compound=CCOc1ccc2ccccc2c1C(=O)N[C@@H]1C(=O)N2[C@@H]1SC(C)(C)[C@@H]2C(=O)O measured_endpoint=inhibition unit_abbrev=% value_reported=-3.57
compound=CC1=C(/C=C/C(C)=C/C=C/C(C)=C/C(=O)O)C(C)(C)CCC1 measured_endpoint=inhibition unit_abbrev=% value_reported=-2.82
compound=NNC(=O)c1cc(O)c(O)c(O)c1 measured_endpoint=inhibition unit_abbrev=% value_reported=-1.49
compound=Cn1c(SCC(=O)c2ccccc2)nnc1-c1ccncc1 measured_endpoint=inhibition unit_abbrev=% value_reported=0.59
compound=CCSC(=O)CCCCCCCCCCCO measured_endpoint=inhibition unit_abbrev=% value_reported=20.2
compound="CC(C)CN1CCN(Cc2cccn2-c2ccccn2)CC1CCO (configuration not stated)" measured_endpoint=inhibition unit_abbrev=% value_reported=22.9
compound=CCCCOc1ccc(CC(=O)NO)cc1 measured_endpoint=inhibition unit_abbrev=% value_reported=-3.24
compound="CC(=O)OC1c2c(ccc3ccc(=O)oc23)OC(C)(C)C1OC(=O)CC(C)C (configuration not stated)" measured_endpoint=inhibition unit_abbrev=% value_reported=19.3
compound="COCCCN1C(=O)C(=O)/C(=C(/O)c2ccc3c(c2)CC(C)O3)C1c1cccnc1 (configuration not stated)" measured_endpoint=inhibition unit_abbrev=% value_reported=3.14
compound=CC(=O)c1cccc(NC(=O)N[C@@H](CC(C)C)C(=O)O)c1 measured_endpoint=inhibition unit_abbrev=% value_reported=-9.79
compound=COC(=O)c1ccc(C(=O)OC)c(NC(=O)C(C)C)c1 measured_endpoint=inhibition unit_abbrev=% value_reported=-72.7
compound=O=C(O)c1ccccc1OCCOc1ccccc1 measured_endpoint=inhibition unit_abbrev=% value_reported=2.55
compound=CC(/C=C1\SC(=O)N(CCCC(=O)O)C1=O)=C\c1ccccc1 measured_endpoint=inhibition unit_abbrev=% value_reported=12.5
compound=COc1cc2c(cc1OC)/C(=C/c1ccc(Cl)cc1)C(=O)OC2 measured_endpoint=inhibition unit_abbrev=% value_reported=-7.12
compound="O=C(OCC(O)C(O)COC(=O)c1ccccc1)c1ccccc1 (configuration not stated)" measured_endpoint=inhibition unit_abbrev=% value_reported=-10.5
compound=CN1CCN(CC/C=C2/c3ccccc3Sc3ccc(S(=O)(=O)N(C)C)cc32)CC1 measured_endpoint=inhibition unit_abbrev=% value_reported=23
compound=COc1ccccc1NC(=O)Cn1c(C)cc(=O)c2cccc(OC)c21 measured_endpoint=inhibition unit_abbrev=% value_reported=-11.8
compound=CC(C)(C)C(=O)NC(=S)NNC(=O)c1ccncc1 measured_endpoint=inhibition unit_abbrev=% value_reported=-7.08
compound=O=C(/C=C/Sc1ccccc1)c1ccccc1 measured_endpoint=inhibition unit_abbrev=% value_reported=-15
compound="COc1ccccc1N=CC1=C(O)CC(c2ccccc2)CC1=O (configuration not stated)" measured_endpoint=inhibition unit_abbrev=% value_reported=-36.2
compound=O=C(N1CCCCC1)C1(c2ccccc2)CCOCC1 measured_endpoint=inhibition unit_abbrev=% value_reported=-3.16
compound=CC[C@H](C)C(=O)O[C@H]1C[C@@H](C)C=C2C=C[C@H](C)[C@H](CC[C@@H]3C[C@@H](O)CC(=O)O3)[C@H]21 measured_endpoint=inhibition unit_abbrev=% value_reported=-5.11
compound="CC(CCCC(C)(C)O)NC(=O)c1ccc(OC2CCN(C(=O)C3CC3)CC2)cc1 (configuration not stated)" measured_endpoint=inhibition unit_abbrev=% value_reported=20.1
compound=COC(=O)C1=CN(Cc2cccs2)C=C(C(=O)OC)C1c1cccc(Cl)c1 measured_endpoint=inhibition unit_abbrev=% value_reported=14
compound=C1COC(NC(C2CC2)C2CC2)=N1 measured_endpoint=inhibition unit_abbrev=% value_reported=17.1
compound="O=C(NCCC(c1ccccc1)c1ccco1)c1cccs1 (configuration not stated)" measured_endpoint=inhibition unit_abbrev=% value_reported=-5.89
compound="CC1=NN(C(=O)c2ccc(Br)cc2)C(O)(c2ccccc2)C1 (configuration not stated)" measured_endpoint=inhibition unit_abbrev=% value_reported=13.7
compound=Cc1ccc2[nH]c(=O)c(Cc3ccccc3)c(O)c2c1 measured_endpoint=inhibition unit_abbrev=% value_reported=3.7
compound=Nc1ccc(-c2nc3ncccc3o2)c(Cl)c1 measured_endpoint=inhibition unit_abbrev=% value_reported=-15.4
compound=COc1ccc2c(C=O)cn(C)c2c1 measured_endpoint=inhibition unit_abbrev=% value_reported=6.46
compound=COc1ccc(C=O)c(OC)c1 measured_endpoint=inhibition unit_abbrev=% value_reported=26.1
compound=Clc1cc(-c2ccc(/C=N/n3cnnc3)o2)ccc1Br measured_endpoint=inhibition unit_abbrev=% value_reported=-3.77
compound=C[C@H]1C[C@@H]2[C@H]([C@@H](O)C[C@@]3(C)[C@H]2CC[C@]3(O)C(=O)CO)[C@@]2(C)C=CC(=O)C=C12 measured_endpoint=inhibition unit_abbrev=% value_reported=10.3
compound=COc1cccc(-n2c(C)c3c(OC)cccc(=O)c3c2C)c1 measured_endpoint=inhibition unit_abbrev=% value_reported=-33.3
compound=CCOc1ccc2[nH]c3c(=O)n(CCc4ccc(OC)cc4)cnc3c2c1 measured_endpoint=inhibition unit_abbrev=% value_reported=6.4
compound=COc1ccc(/C=C/C(=O)Nc2ccccc2C(=O)O)cc1OC measured_endpoint=inhibition unit_abbrev=% value_reported=-5.64
compound=c1ccc(SSc2ccccc2)cc1 measured_endpoint=inhibition unit_abbrev=% value_reported=-0.45
compound="COC(=O)c1ccc(NC(=O)C23CCC(C)(C(=O)O2)C3(C)C)cc1 (configuration not stated)" measured_endpoint=inhibition unit_abbrev=% value_reported=-2.82
compound="NC(=O)C1CCCNC1 (configuration not stated)" measured_endpoint=inhibition unit_abbrev=% value_reported=1.59
compound=Cc1ccc(NC(=O)CSc2nc(O)c(Cc3ccccc3)c(=O)n2-c2ccccc2)cc1 measured_endpoint=inhibition unit_abbrev=% value_reported=-6.68
compound=CC(=O)[C@@]1(O)CC[C@H]2[C@@H]3C[C@H](C)C4=CC(=O)CC[C@]4(C)[C@H]3CC[C@@]21C measured_endpoint=inhibition unit_abbrev=% value_reported=11.3
compound="CC(=O)NC(Cc1c[nH]c2ccccc12)C(=O)N/N=C/c1ccccc1 (configuration not stated)" measured_endpoint=inhibition unit_abbrev=% value_reported=-15.8
compound=O=C1CCCC(=O)C1=Cc1c[nH]c2ccccc12 measured_endpoint=inhibition unit_abbrev=% value_reported=9.95
compound=COc1ccc(C(=O)Oc2ccc3c(C)cc(=O)oc3c2C(C)=O)cc1 measured_endpoint=inhibition unit_abbrev=% value_reported=-5.11
compound=O=C(Nc1cccc(C(=O)O)c1)/C(=C\c1ccccc1)NC(=O)c1ccccc1 measured_endpoint=inhibition unit_abbrev=% value_reported=-1.49
compound=CCCCCC#CCC#CCC#CCC#CCCCC(=O)O measured_endpoint=inhibition unit_abbrev=% value_reported=-3.67
